Source: ChEMBL document CHEMBL3044779

# target.entity: Acetyl-CoA carboxylase (Zea mays, UniProt Q3V4E6)
# Sequence (Q3V4E6 whole entry): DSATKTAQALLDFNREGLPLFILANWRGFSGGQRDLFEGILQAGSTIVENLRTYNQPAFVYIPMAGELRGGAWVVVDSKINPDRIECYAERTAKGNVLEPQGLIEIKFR
# test.description: Inhibition of Zea mays (maize) chloroplastic ACCase using acetyl-coA as substrate assessed as inhibition of [14C]NaHCO3 incorporation into malonyl-coA incubated for 10 min prior to substrate addition measured for 20 min by liquid scintillation counting
quantity.name: pIC50
// scale note: pIC50 = -log10(conc_M); give the bare number

compound	quantity.name	reported.measurement
CCc1cc(C)cc(CC)c1C1C(=O)N2CCOCCN2C1=O [PINOXADEN DIONE]	pIC50	6.96

Kindly consider the entry below.
Log: Acetyl-CoA carboxylase (Zea mays, UniProt Q3V4E6), compound Cc1sc(-c2ccc(Cl)cc2)nc1C1C(=O)CC2(CCCCC2)C1=O (configuration not stated) [Spiro-decanedione A] , pIC50 = 8.10

* * *

Below: a set of entries, each annotated with reported IC50.
# target.entity: Acetyl-CoA carboxylase (Zea mays)
# test.description: Inhibition of Zea mays (maize) cytosolic ACCase using acetyl-coA as substrate assessed as inhibition of [14C]NaHCO3 incorporation into malonyl-coA incubated for 10 min prior to substrate addition measured for 20 min by liquid scintillation counting
Numeric answer only, unit µM assumed.

compound	quantity.name	result.unit	reported.measurement
CCc1cc(C)cc(CC)c1C1C(=O)N2CCOCCN2C1=O	IC50	µM	16.9

Then this compound:
Cc1sc(-c2ccc(Cl)cc2)nc1C1C(=O)CC2(CCCCC2)C1=O (configuration not stated) has a reported IC50 of 0.02
